# System: NF-κB (p65) translocation in monocytes
# Assay comment: NF-κB (p65) translocation analysis by immunocytochemistry
# Assay type: cell-based, human
# Test conditions: compounds 100 μM, 1 h pre-incubation; AGEs 50 μg/mL 1 h; MGO-AGEs control 75 RFU, BSA 11 RFU
Just a reminder that ties go to false: only NF-κB translocation in MGO-AGEs-treated monocytes strictly below 40 RFU counts as true.

Here's what some known entries look like.
- Molecule: "O=C(Cn1cc(Cn2c3ccccc3c3ccccc32)nn1)c1ccc([N+](=O)[O-])cc1 [Compound 12]"
  Label value: "true"
- Molecule: "N.S=C(S)N1CCCC1 [PDTC, reference compound]"
  Label value: "false"
- Molecule: "C[C@@H]1O[C@@H](OC[C@H]2O[C@@H](Oc3c(-c4ccc(O)c(O)c4)oc4cc(O)cc(O)c4c3=O)[C@H](O)[C@@H](O)[C@@H]2O)[C@H](O)[C@H](O)[C@H]1O [Rutin, reference compound]"
  Label value: "false"
- Molecule: "O=c1c(O)c(-c2ccc(O)c(O)c2)oc2cc(O)cc(O)c12 [Quercetin, reference compound]"
  Label value: "false"

Shift focus to the following entry.
Bench note: check whether Cc1ncc([N+](=O)[O-])n1CCn1cc(Cn2c3ccccc3c3ccccc32)nn1 [Compound 13] shows NF-κB translocation in MGO-AGEs-treated monocytes below 40 RFU false
